system: Enterococcus faecalis; test: Antibacterial activity against Enterococcus faecalis ATCC 29212 incubated for 18 hrs by CLSI based broth dilution method; assay type: functional
Where a SMILES comes first, the peptide text is derived from it.
List of MIC values.
readoutLabel: MIC

* CC(C)C[C@H](NC(=O)[C@H](Cc1c[nH]c2ccccc12)NC(=O)CN)C(=O)N[C@@H](CCCCN)C(=O)N[C@@H](CCCNC(=N)N)C(=O)N[C@@H](Cc1c[nH]c2ccccc12)C(=O)N[C@@H](CCCCN)C(=O)N[C@H](C(=O)N[C@@H](CC(C)C)C(=O)N[C@@H](Cc1c[nH]c2ccccc12)C(N)=O)[C@@H](C)O (H-GWLKRWKTLW-NH2) | 64 µM
* CC[C@H](C)[C@H](NC(=O)[C@H](CCCNC(=N)N)NC(=O)[C@H](CCCCN)NC(=O)[C@H](Cc1ccccc1)NC(=O)[C@H](Cc1c[nH]c2ccccc12)NC(=O)[C@@H](N)CCCCN)C(=O)N[C@@H](CCCCN)C(=O)N[C@H](C(=O)N[C@@H](Cc1ccccc1)C(=O)N[C@@H](Cc1c[nH]c2ccccc12)C(N)=O)[C@@H](C)O (H-KWFKRIKTFW-NH2) | 64 µM
* CC(C)C[C@H](NC(=O)[C@H](CC(C)C)NC(=O)[C@@H](NC(=O)[C@H](CCCCN)NC(=O)[C@H](Cc1c[nH]c2ccccc12)NC(=O)[C@H](CCCNC(=N)N)NC(=O)[C@H](CCCCN)NC(=O)[C@H](CC(C)C)NC(=O)[C@H](CC(C)C)NC(=O)CN)[C@@H](C)O)C(N)=O (H-GLLKRWKTLL-NH2) | 256 µM

Values from ChEMBL document CHEMBL4823282
